- assayed target: horse cytochrome-C on HP Sepharose SP
- assay remarks: Batch displacement assay, cytochrome-C on HP Sepharose SP
- Assay type: binding
- conditions: input displacer concentration displacing 50% of bound protein; 50 mM phosphate, pH 6.0
- Source text: A modified batch displacement assay was used to investigate displacer efficacy of the carbohydrate derivatives over a wide range of concentrations. The carbohydrate derivatives from hereon will be referred to as the displacer candidates unless otherwise specified. […] Table 1 is of displacer candidates and their respective DC50 values of horse cytochrome-C on HP Sepharose SP and Source 15S cation exchange resins in accordance with the present invention. Column 201 is the displacer candidate evaluated. […]
endpoint label: DC50 (mM)

{"columns": ["compound", "numeric readout"],
 "data": [
  ["NCCCNCCCCNCCCNC(=O)Nc1ncnc2c1ncn2C1CC(OC(=O)NCCCNCCCCNCCCN)C(COC(=O)NCCCNCCCCNCCCN)O1 (stereo not drawn)", 2.3],
  ["NCCNC(=O)NCC1OC(OC2C(NC(=O)NCCN)CC(NC(=O)NCCN)C(OC3OC(CO)C(O)C(NC(=O)NCCN)C3O)C2O)C(N)C(O)C1O (stereo not drawn)", 1.9],
  ["NC[C@H]1O[C@H](O[C@H]2[C@H](O)[C@@H](O)[C@H](N)C[C@@H]2N)[C@H](N)[C@@H](O)[C@@H]1O [Neamine, neamine, reference compound]", 5.6],
  ["NC[C@H]1O[C@H](O[C@H]2[C@H](O)[C@@H](O[C@H]3O[C@H](CO)[C@@H](O)[C@H](N)[C@H]3O)[C@H](N)C[C@@H]2N)[C@H](N)[C@@H](O)[C@@H]1O [Bekanamycin, bekanamycin, reference compound]", 6.2],
  ["NCCCNCCCCNCCCNC(=O)NC1C(OCc2ccccc2)OC(COC(=O)NCCCNCCCCNCCCN)C(O)C1O (stereo not drawn) [4c]", 1.3]
]}

1. NCCCNCCCCNCCCNC(=O)OCC1OC(n2cnc3c(N)ncnc32)CC1O (stereo not drawn)
2. NCCNC(=O)NCC1OC(OC2C(CO)OC(OC3C(O)C(NC(=O)NCCN)CC(NC(=O)NCCN)C3OC3OC(CNC(=O)NCCN)C(O)C(O)C3NC(=O)NCCN)C2O)C(NC(=O)NCCN)C(O)C1O (stereo not drawn) [14a]
Short answer wanted: higher DC50, 1 or 2 ? Your answer should be the label of the entry you select.
1

A. NCCN [Ethylenediamine, ethylenediamine, reference compound]
B. NCCCNCCCCNCCCN [Spermine, spermine, reference compound]
For the pair A and B , which entry has the numerically smaller recorded DC50? Bench note: the answer is the label of the chosen record.
B
(B: 4.8 mM, A: 20.2 mM)

====

- assayed target: horse cytochrome-C on HP Sepharose SP
- assay remarks: Batch displacement assay, cytochrome-C on HP Sepharose SP
- Format: binding
- conditions: input displacer concentration displacing 50% of bound protein; 50 mM phosphate, pH 6.0
endpoint label: DC50 (mM)

See these solved cases before continuing.
{"columns": ["compound", "DC50, mM"],
 "data": [
  ["NCCNC(=O)NCC1OC(OC2C(NC(=O)NCCN)CC(NC(=O)NCCN)C(O)C2O)C(NC(=O)NCCN)C(O)C1O (stereo not shown) [17a]", 2.1],
  ["NCCCNCCCCNCCCNC(=O)NC1C(O)OC(COC(=O)NCCCNCCCCNCCCN)C(O)C1O (stereo not shown)", 2.8]
]}

a. NCCNC(=O)NCC1OC(OC2C(NC(=O)NCCN)CC(NC(=O)NCCN)C(OC3OC(CO)C(O)C(NC(=O)NCCN)C3O)C2O)C(O)C(O)C1O (stereo not shown) [23a]
b. NCCCCNCCCN [Spermidine, spermidine, reference compound]
Hey, between a and b which has a smaller measured DC50? Refer to your chosen item by its label in the answer.
a

====

Recorded DC50 values for a group of compounds are listed next.
- assayed target: horse cytochrome-C on HP Sepharose SP
- assay remarks: Batch displacement assay, cytochrome-C on HP Sepharose SP
- Type: binding
- conditions: input displacer concentration displacing 50% of bound protein; 50 mM phosphate, pH 6.0
- Excerpt: A modified batch displacement assay was used to investigate displacer efficacy of the carbohydrate derivatives over a wide range of concentrations. The carbohydrate derivatives from hereon will be referred to as the displacer candidates unless otherwise specified. […] Table 1 is of displacer candidates and their respective DC50 values of horse cytochrome-C on HP Sepharose SP and Source 15S cation exchange resins in accordance with the present invention. Column 201 is the displacer candidate evaluated. […]
API: value field is a number in µM; no unit string.

Quick one: DC50 for NCCCNCCCCNCCCNC(=O)NC1C(OCc2ccccc2)OC(COC(=O)NCCCNCCCCNCCCN)C(O)C1O (stereo not drawn) [4d] ?
2800

And then NCCCNCCCCNCCCNC(=O)NCC1OC(OC2C(NC(=O)NCCCNCCCCNCCCN)CC(NC(=O)NCCCNCCCCNCCCN)C(O)C2O)C(NC(=O)NCCCNCCCCNCCCN)C(O)C1O (stereo not drawn) [17b, neamine tetraspermine] , what is it?
700

Same for COC1OC(CO)C(OC2OC(CNC(=O)NCCNCCN)C(O)C(O)C2NC(=O)NCCNCCN)C1O (stereo not drawn) [20a]
9400
